target_desc: T1, human FSTL1 (construct not stated) (human, UniProt Q12841 21-308)
T1 construct: also called human FSTL1 antigen; FSTL1 (R&D Systems, Inc. Cat#1694-FN-050)
T1 sequence: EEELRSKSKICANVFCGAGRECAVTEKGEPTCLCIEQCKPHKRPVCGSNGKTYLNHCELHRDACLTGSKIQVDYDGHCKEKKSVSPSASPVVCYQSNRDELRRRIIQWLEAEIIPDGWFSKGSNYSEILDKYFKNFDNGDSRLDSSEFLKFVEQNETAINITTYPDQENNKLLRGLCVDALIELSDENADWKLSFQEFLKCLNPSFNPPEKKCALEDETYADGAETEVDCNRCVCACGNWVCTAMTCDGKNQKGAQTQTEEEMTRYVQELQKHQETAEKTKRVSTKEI
method_summary: SPR (Biacore T-200), captured antibody, human FSTL1 10 µg/ml; further: time not given here
parameter: Dissociation amount (RU)
Your answer is read as RU, so omit the unit and give the number.

# annotated cases, reported Dissociation amount (RU) shown
binder | parameter | measurement_unit | result_value
anti-FSTL1 antibody clone #8-1 (chicken-mouse chimeric antibody) (antibody, mouse IgG1, kappa, V domains shown) VH: AVTLDESGGGLQTPGGALSLVCKGSGFTFSSFNMFWVRQAPGKGLEWVAGIGKDGVPKYGAAVDGRATISKDNGQSTMRLQLNNLRAEDTGTYFCAKAAGGCSYDWCGIYAGDIDTWGHGTEVIVSS VL: ASTQPSSVSANPGEAVKITCSGGSGSYYGWYQQKSPGSAPVTVIYNNNQRPSDIPSRFSGSKSGSTATLTITGVQAEDEAVYFCGGYDSSSGHGGIFGAGTTLTVLG | Dissociation amount (RU) | RU | 12.3
anti-FSTL1 antibody clone #8-8 (chicken-mouse chimeric antibody) (antibody, mouse IgG1, kappa, V domains shown) VH: AVTLDESGGGLQTPGGALSLVCKGSGFTFSSFNMFWVRQAPGKGLEWVAGIGKDGVPKYGAAVDGRATISKDNGQSTMRLQLNNLRAEDTGTYYCAKAAGGCSYGWCGAYTGDIDTWGHGTEVIVSS VL: ASTQPSSVSANPGEAVKITCSGGSGSYYGWYQQKSPGSAPVTVIYNNNQRPSDIPSRFSGSKSGSTATLTITGVQVEDEAVYFCGGYDSSTGHGGIFGAGTTLTVLG | Dissociation amount (RU) | RU | 4.7

Attention now shifts to the item below.
Returns the measured Dissociation amount (RU) for the input binder. Input: anti-FSTL1 antibody clone #5-2 (chicken-mouse chimeric antibody) (antibody, mouse IgG1, kappa, V domains shown) VH: AVTLDESGGGLQTPGGGLSLVCKGSGFTFSSFNMFWVRQAPGKGLEWVAGVGKDGGTGYGAAVDGRATISKDNGQSTLRLQLNNLRAEDTGTYYCAKAAGGCSYGWCGSYVGDIDAWGHGTEVIVSS VL: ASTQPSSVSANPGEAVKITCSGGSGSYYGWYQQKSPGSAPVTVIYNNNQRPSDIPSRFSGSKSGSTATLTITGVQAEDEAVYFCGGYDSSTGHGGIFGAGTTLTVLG
7.1
